tested-target: human CD33 variant I47F (human, UniProt P20138 18-364)
Sequence (P20138 18-364 I47F limits assumed): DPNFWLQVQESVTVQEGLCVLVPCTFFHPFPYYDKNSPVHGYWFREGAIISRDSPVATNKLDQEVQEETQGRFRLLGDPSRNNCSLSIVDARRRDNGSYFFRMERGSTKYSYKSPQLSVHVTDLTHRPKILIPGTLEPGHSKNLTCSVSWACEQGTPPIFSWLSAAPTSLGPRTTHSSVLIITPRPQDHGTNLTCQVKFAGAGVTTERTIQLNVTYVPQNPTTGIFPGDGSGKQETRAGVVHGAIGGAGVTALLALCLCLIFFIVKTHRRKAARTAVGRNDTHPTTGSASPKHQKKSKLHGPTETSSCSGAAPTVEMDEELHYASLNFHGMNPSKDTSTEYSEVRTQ
experiment-notes: flow cytometry, IgG on cells expressing the mutant
measured-quantity: Mean % WT Binding

[ask] Please give the measured Mean % WT Binding for this binder: Refmab #4 (antibody, human IgG1, V domains shown, Tested in IgG format; human IgG1 Fc silent (PG-LALA)) VH: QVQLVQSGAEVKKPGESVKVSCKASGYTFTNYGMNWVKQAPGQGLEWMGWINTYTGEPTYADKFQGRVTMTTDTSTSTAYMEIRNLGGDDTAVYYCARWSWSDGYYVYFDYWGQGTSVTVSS VL: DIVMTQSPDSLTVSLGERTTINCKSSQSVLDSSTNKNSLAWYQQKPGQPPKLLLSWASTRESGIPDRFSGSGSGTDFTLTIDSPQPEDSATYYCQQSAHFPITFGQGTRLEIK
[reply] 102 % of WT

Values from patent US20260242735A1
